- ASSAY INFO: S. cerevisiae growth modulation with rapamycin, primary screen, strain BY4716, OD600, 96 h (AID 1091); note: test concentration not given here
- MEASUREMENT CONTEXT: higher = more signal, called active from +8 up or from −8 down
MEASURED ENDPOINT: z-score
No unit in the answer, only the number.

Recorded z-score, per entry:
molecule="CC(C)=CCCC(C)=CC(O)C1C=CC2C(=O)N(c3ccccc3)C(=O)C2N1Nc1ccccc1 (stereo not drawn)" val=1.02
molecule="CN1CCC(CCCO)=CC1c1ccc(CN2CCCC2)cc1 (stereo not drawn)" val=-0.763
molecule="CC(C)C(O)C1C=CC2C(=O)N(c3ccccc3)C(=O)C2N1Nc1ccc(C#N)cc1 (stereo not drawn)" val=1.39

Find the measured z-score of `COCCOC(=O)N1C(=O)[C@@]2(c3cc(C#CCC(C(=O)OC)C(=O)OC)ccc31)[C@H](C(=O)N1CCN(c3ncccn3)CC1)[C@H]1C(=O)O[C@H](c3ccccc3)[C@H](c3ccccc3)N1[C@@H]2c1ccc(OCCO)cc1` and report it.
5.21

Could you please provide reported z-score for `COC(=O)[C@@]1(Cc2ccc(OC)cc2)[C@H]2c3cc(C(=O)N4CCCC4)n(Cc4ccccn4)c3C[C@H]2CN1C(=O)c1ccccc1` ? Thanks!
1.33

Note down z-score recorded for CC(C)c1ccc(NN2C(C(O)c3c(F)cccc3Cl)C=CC3C(=O)N(c4ccccc4)C(=O)C32)cc1 (stereo not drawn)
1.63

Read the entry O=C1OCCC=C[C@H]2OC34C=CCN(Cc5ccccc5)C(=O)[C@H]3N(CCCO)C(=O)[C@@H]4C12 (stereo partly drawn) and write its reported z-score.
-1.54

Dear colleague, please send me the reported z-score for `O=C/C=C/c1ccc2c(c1)OCO2` when you can.
-1.69
